- ASSAYED SYSTEM: SARS-CoV-2 3CLpro (Severe acute respiratory syndrome coronavirus 2, UniProt P0DTD1)
- Construct: The kit contains assay buffer (125 mL, blank control), 2019-nCoV-2 3CLpro (500 μL), substrate (1 mL); purchased Beyotime Biotechnology (Shanghai, China) P0312M
- TEST DETAILS: biochemical
- REPORTED CONDITIONS: FRET assay, serial dilution; read-out: IC50 against SARS-CoV-2 3CLpro
QUANTITY NAME: IC50 (µM)
One number for each entry, in µM.

Some solved entries appear below for comparison.
MOLECULE	ASSAYED SYSTEM	UNITS OF MEASURE	IC50
Oc1cc(O)c2c(c1)O[C@H](c1cc(O)c(O)c(O)c1)[C@H](O)C2 [Compound 4, (−)-epigallocatechin]	SARS-CoV-2 3CLpro (Severe acute respiratory syndrome coronavirus 2, UniProt P0DTD1)	µM	12
CCN1C(=O)CC[C@@H]1c1c(O)cc2c(c1O)C[C@@H](O)[C@@H](c1cc(O)c(O)c(O)c1)O2	SARS-CoV-2 3CLpro (Severe acute respiratory syndrome coronavirus 2, UniProt P0DTD1)	µM	22.4

Please state IC50 for every molecule in the list that follows.
1. COc1cc(C(=O)O[C@@H]2Cc3c(O)cc(O)cc3O[C@@H]2c2cc(O)c(O)c(O)c2)cc(O)c1O
2. CCN1C(=O)CC[C@@H]1c1c(O)cc(O)c2c1O[C@H](c1cc(O)c(O)c(O)c1)[C@H](O)C2
3. CCN1C(=O)CC[C@H]1c1c(O)cc2c(c1O)C[C@@H](O)[C@@H](c1cc(O)c(O)c(O)c1)O2
4. CCN1C(=O)CC[C@H]1c1c(O)cc(O)c2c1O[C@H](c1cc(O)c(O)c(O)c1)[C@H](O)C2

1: 9.8; 2: 14.5; 3: 26.8; 4: 14.9

Please state IC50 for every molecule in the list that follows.
1. C[C@@H]1O[C@@H](OC[C@H]2O[C@@H](Oc3c(-c4ccc(O)cc4)oc4cc(O)cc(O)c4c3=O)[C@H](OC(=O)/C=C\c3ccc(O)cc3)[C@@H](O)[C@H]2O)[C@H](O)[C@H](O[C@@H]2O[C@H](CO)[C@@H](O)[C@H](O)[C@H]2O)[C@H]1O
2. COc1cc(C(=O)O[C@@H]2Cc3c(O)cc(O)cc3O[C@@H]2c2cc(O)c(O)c(O)c2-c2c([C@H]3Oc4cc(O)cc(O)c4C[C@H]3O)cc(O)c(O)c2O)cc(O)c1O

1. 61.1
2. 42.1
